Sourced from the supplement of paper PMC9170038

# Test system: MS2 coat protein
# PROCEDURE DETAILS: apparent KD of MS2 coat protein; designed switch direction (-1 OFF switch, 1 ON switch): 1; higher = weaker reporter binding
# PARTICULARS: Eterna round: R95; input ligand: FMN 200 uM
Parameter apparent KD of MS2 coat protein: see the listing below.
ASSAY ENDPOINT: apparent KD of MS2 coat protein (nM)

1) GUGCGAGUGCCACAGGAUAUACGUGGAUCGACAUGAGGAUCACCCAUGUAUAUCCUAAUAAUUGCGUAGAAGGGUGGUCAGUCGG [Inzage] (puzzle: Same State 2)    136
2) GGAGCCGGCACCGAGGAUAUUUAUAUUAAAACAUGAGGAUCACCCAUGUAGGCCAGAAGGCCUUGGGAGAAGGCGGAUCGGCUCG [Xeonanis - 5] (puzzle: Same State 2)    16.4
3) UGGAUCUAGGCUUGCCUGGGUCCAUGCUGACAUGAGGAUCACCCAUGUGCAUCCUACAAGCUUUUUGCUUGUCGGCU (puzzle: Sensor for hsa-mir-208a)    178
4) GGAGCCGGUACUGAGGAUAUUCAUUUUAAAACAUGAGGAUCACCCAUGUAGGCCAGAAGGCCUUGGGAGAAGGCAGAUCGGCUCC [Biseusra - 6] (puzzle: Same State 2)    19
5) GGAGAAUAACUAGAGGAUAUCCGAGUGGUAACAUGAGGAUCACCCAUGUGAUGAAAGGAACAUGAGGAGAAGGCUAGAAUGAAGG [Mat - Same State 2 - Mod of JL - D85] (puzzle: Same State 2)    37.3

###

# System: MS2 coat protein
# PROCEDURE DETAILS: apparent KD of MS2 coat protein; designed switch direction (-1 OFF switch, 1 ON switch): -1; higher = weaker reporter binding
# PARTICULARS: Eterna round: R95; input ligand: FMN 200 uM
ASSAY ENDPOINT: apparent KD of MS2 coat protein (nM)

1) AGAAGACAUGAGGAUCACCCAUGUAAGGAUAUCGAAGGUAUGAGAGGAAAGAGGUUAACGAGAAGGUACAGGUG [JR_Exclu1_Sub098] (puzzle: Exclusion 1)    85.9
2) CAGUACUGAGGAUAUACAUGAGGAUCACCCAUGUGUUCCAGCUAGGAAACUAGCUAAAGUAGAAGGCAGUACUG [salish99_ex3_r3_092x] (puzzle: Exclusion 3)    459
3) AGUACUAUGCGUGCUGACAUGCGUAGUGCAGCAGGUGUUACAUGAGGAUCACCCAUGUCCUCAUUUGCUCGUCUUAU [Mat - Sensor v3 - Turn-off var 2 - D15] (puzzle: Sensor v3, turn-off variant 2)    75.7
4) CUGAGCAGACGGAGAUCCAACAUGAGGAUCACCCAUGUCUCAAAAGCUUUUUGCUCAUCUUAUCGUACCUUGGUGCU [JL ViennaUCT Edcesobi mod 1] (puzzle: Sensor v3, turn-off variant 1)    406
5) GAAAACGCAGAGGAUAUUUCAGAUCAAAGCUGCAAAGAAGGCUGCACAUGAGGAUCACCCAUGUGGUCUUUAAA [Quesina] (puzzle: Exclusion 6)    167

###

# Test system: MS2 coat protein
# PROCEDURE DETAILS: apparent KD of MS2 coat protein, switch ON state; designed switch direction (-1 OFF switch, 1 ON switch): 1; higher = weaker reporter binding
# PARTICULARS: FMN input: 0 or 200 uM; Eterna round: R93 (includes R88 designs)
Could you label it rule met if measured apparent KD of MS2 coat protein is 30 nM or higher, and rule not met otherwise?

1) AAAAUAUAAACGGAGGAUAUCCAAAGAACCACAUGAGGAUCACCCAUGUAAAGAAAGAAUAAGUGGGAGAAGGCCGAAAUAAUAA [Designing denovo 27]    rule not met
2) GGGAAGAAGAGAGAGGAUAUCCAAAGGAAAACAUGAGGAUCACCCAUGUAAAAGGUAGGAAAUUGGGAGAAGGCUCAAAAGAGGG [salish99-ss2-032]    rule not met
3) AGAAAUAAAAGCGAGGAUAUCCAAAAGAAAACAUGAGGAUCACCCAUGUAAAAGAAAAUAAAAUGGGAGAAGGCGCAAAAUAAAG    rule not met
4) GAAAAACAUGAGGAUCACCCAUGUAAAAAUAUGGGAGGAUAUUCAAAGACGAAAGGGAAAGAAGAAGGCCUAAAAG [Garnet 4]    rule met
5) UAUAAACAUGAGGAUCACCCAUGUAGAAAUAUGGGAGGAUAUACAAAGACGAAAGUCAAAGUAGAAGGCCUAAUAA [Mat - Same State 1 - Mod - D156]    rule not met
6) AACAAUCUAUCUGAGGAUAUCAUGUAAAAAACAUGAGGAUCACCCAUGUCUAGGAAAACUAGAUAUGAGAAGGCAGAUAGAUUGA [SS1 - 596]    rule met

###

# Test system: MS2 coat protein
# PROCEDURE DETAILS: apparent KD of MS2 coat protein; designed switch direction (-1 OFF switch, 1 ON switch): 1; higher = weaker reporter binding
# PARTICULARS: Eterna round: R95; input ligand: none
Category scheme (apparent KD of MS2 coat protein): LOW = under 60 nM, MEDIUM = from 60 nM up to 300 nM, HIGH = 300 nM and over

1) AGUCCAGCAUGAGCUGGACAAAAGCAUGUACAUGAGGAUCACCCAUGUUCAUGUACAAGCUUUUUGCAAGUCAAAAU [Mat - hsa-mir-208a - Mod of JL - 81] (puzzle: Sensor for hsa-mir-208a)    HIGH
2) AAAGCCCGUGCUAAGGAUAUGCGUACUCCUACAUGAGGAUCACCCAUGUCCCGCCGAAAAGGAAGGCAGAAGGUAGCACGGGCAA [Letiso] (puzzle: Same State 2)    MEDIUM
3) UUCCUACAUGAGGAUCACCCAUGUGACGCCUCGAUAGGAUAUGCGUGUGCCUUGGCGCAUGCAGAAGGGUUGUAGC [JL Aveso mod 9] (puzzle: Same State 1)    LOW
4) AUCAAAACAAGUUGCAGUGUUCGUCUUUCACAUGAGGAUCACCCAUGUAAUAGCCCAGUGGAAGCGCUCAGGCCACC [Usbi] (puzzle: Sensor for hsa-mir-208a)    MEDIUM
5) GGUAAACAUGAGGAUCACCCAUGUAAUAUAAUGGGAGGAUAUCUGAAUUAAUUAAAUUAAGGAGAAGGCCUAAUGG [Mat - Same State 1 - Mod of Eli - D49] (puzzle: Same State 1)    HIGH
6) AUAAAACAUGAGGAUCACCCAUGUCAACAAAGUCGAGGAUAUGGGCAAAUAAAAUAAGAACCAGAAGGCGAAUAAG [salish99_SS1_r3_004] (puzzle: Same State 1)    MEDIUM
7) CGUCCAGCCUGAGCUGGACAAAAGCAUGUACAUGAGGAUCACCCAUGUUCAUGUACAAGCUUUUUGCUCGUCUUAUU [salish99_208a_r3_050] (puzzle: Sensor for hsa-mir-208a)    HIGH
8) GGAGAAUAACUAGAGGAUAUCCGAGUGGUAACAUGAGGAUCACCCAUGUGAUGAAAGGAACAUGAGGAGAAGGCUAGAAUGAAGG [Mat - Same State 2 - Mod of JL - D85] (puzzle: Same State 2)    MEDIUM
9) GGAGCCGGCACUGAGGAUAUUCAUAUUUAAACAUGAGGAUCACCCAUGUAGGCCAGAAGGCCUUGGGAGAAGGCAGGUCGGCUCU [salish99_ss2_r3_077] (puzzle: Same State 2)    HIGH
10) UGGAUCUAGGCUUGCCUGGGUCCAUGCUGACAUGAGGAUCACCCAUGUGCAUCCUACAAGCUUUUUGCUUGUCGGCU (puzzle: Sensor for hsa-mir-208a)    MEDIUM
11) GGAGCCGGUACUGAGGAUAUUUAUAUUAAAACAUGAGGAUCACCCAUGUAGGCCAGAAGGCCUUGGGAGAAGGCAGAUCGGCUCC [Biseusra - 5] (puzzle: Same State 2)    MEDIUM
12) AUAAAACAUGAGGAUCACCCAUGUCAACAAAGUCGAGGAUAUGGGCAAAGAAAAUAAGAACCAGAAGGCGAAUAAU [salish99_ss1_r3_056] (puzzle: Same State 1)    HIGH
13) UGGAUCUAGGCUUGCCUGGGUCCUUCAAGACAUGAGGAUCACCCAUGUGUUUUUUUUUUGCUUUUUGUUUGUCUUGA [JL A Humble Attempt mod 2] (puzzle: Sensor for hsa-mir-208a)    LOW
14) AGUCCAGCCUGAGCUGGACAAAAGCAUGUACAUGAGGAUCACCCAUGUUCAUGUACAAGCUUUUUGCUCGUCUGAAU [Mat - hsa-mir-208a - Mod of JL - 47] (puzzle: Sensor for hsa-mir-208a)    HIGH
15) AACAAUCUAUCUGAGGAUAUCAUGAAAUAAACAUGAGGAUCACCCAUGUGCAGGAAAUCUGCAUAUGAGAAGGCAGAUAGAUUGA [salish99_ss2_r3_043] (puzzle: Same State 2)    HIGH
16) AGUCCAGCCUGAGCUGGACAAAAGCAUGUACAUGAGGAUCACCCAUGUCAUGUAUAAGCUUUUUGCUCGUCUUAAAA [Zipper 46 - 10] (puzzle: Sensor for hsa-mir-208a)    LOW
17) UUCUCACAUGAGGAUCACCCAUGUGAGCCUCUGUGAGGAUAUCCGACAUAAUUAAGUGAAGGAGAAGGUACACGAG [Malean] (puzzle: Same State 1)    LOW
18) UCUUGGUUUUUGCUCGUUUUUUGUGUUGAACAUGAGGAUCACCCAUGUAUUGUACGGUCCAAUUUAGUAGUGGUCCG [JMF 25] (puzzle: Sensor for hsa-mir-208a)    LOW
19) AGGAAGGAGACUGAGGAUAUCGUUGAAAAGACAUGAGGAUCACCCAUGUGUAUAGGAUUGGAGAACGAGAAGGCAGAGGAGUGGA [JR_SS2_Sub044] (puzzle: Same State 2)    LOW
